For each entry below, report its abundance fitness value.
B1: Gamma-crystallin C, residues 4 to 79; numbered along this chain, P07315 (parent)
chain: ITFYEDRAFQGRSYETTTDCPNLQPYFSRCNSIRVESGCWMLYERPNYQGQQYLLRRGEYPDYQQWMGLSDSIRSC

# Variants of: B1
# PROCEDURE_TEXT: abundance fitness (aPCA) (normalised: wild type 0, dead -1); higher = more abundant; growth selection in yeast, the domain comes from the species named
# CONDITION: Homo sapiens
The reply should be a number, written without any unit.

Query: Consider the variant ITFYEDRAFQGRMYETTTDCPNLQPYFSRCNSIRVESGCWMLYERPNYQGQQYLLRRGEYPDYQQWMGLSDSIRSC [S13M] and give its recorded abundance fitness.
Response: -0.075

Query: Consider the variant ITFYEDRAFQGRSYETTTDCPNLQPHFSRCNSIRVESGCWMLYERPNYQGQQYLLRRGEYPDYQQWMGLSDSIRSC [Y26H] and give its recorded abundance fitness.
Response: -0.082

Query: Consider the variant ITFYEDRAFQGRSYETTTDCPNLQPYFSRCNSIRVERGCWMLYERPNYQGQQYLLRRGEYPDYQQWMGLSDSIRSC [S37R] and give its recorded abundance fitness.
Response: -0.004

Query: Consider the variant ITFYEDRAFQGRSYETTTDCPNLQPYFSRCNSIRVESGCWMLYERPEYQGQQYLLRRGEYPDYQQWMGLSDSIRSC [N47E] and give its recorded abundance fitness.
Response: 0.047

Query: Consider the variant ITFYEDRAFQGRSYETTTDCPNLQPYFSRCNSIRVESGCWMLYERPNYQGQLYLLRRGEYPDYQQWMGLSDSIRSC [Q52L] and give its recorded abundance fitness.
Response: -0.017

Query: Consider the variant ITFYEDRAFQGRSYETTTDCPNLQPYFSRCNSIRVWSGCWMLYERPNYQGQQYLLRRGEYPDYQQWMGLSDSIRSC [E36W] and give its recorded abundance fitness.
Response: 0.003

Query: Consider the variant ITFYEDRAFQGRSYETTTDCPNLQPYFSRCNSIRVESGCWMLYERPNYQGQQYLLRRGEYPDYQQPMGLSDSIRSC [W66P] and give its recorded abundance fitness.
Response: 0.005

Query: Consider the variant ITFYEDRAFQGRSYETTTDCPNLQPYFSRCNSIRVESGCWMLYERPNYQGQQYCLRRGEYPDYQQWMGLSDSIRSC [L54C] and give its recorded abundance fitness.
Response: 0.085

Query: Consider the variant ITFYEDRAFQGRSYETTTDCPNLQPYFSRCNSIRVESGCWMLYERPNYQGQQYLLVRGEYPDYQQWMGLSDSIRSC [R56V] and give its recorded abundance fitness.
Response: 0.039

Query: Consider the variant ITFYEDRAFQGRSYETTTDCPNLQPYFSRCNSIRVESGCWMLYERPNYQGQQYLLRRGKYPDYQQWMGLSDSIRSC [E59K] and give its recorded abundance fitness.
Response: 0

Query: Consider the variant ITFYEDRAFQGRSYETTTDCPNLQPYFSRCNSIRVESGCWMLYERPNYQGQQYLLRRGQYPDYQQWMGLSDSIRSC [E59Q] and give its recorded abundance fitness.
Response: 0.009

Query: Consider the variant ITFYEDRAFQGRSYETTTDCPNLQPYFSRCNSIRVESGCWMLYERPNYQGQQYLLRRGEYPDYQQWKGLSDSIRSC [M67K] and give its recorded abundance fitness.
Response: -0.043

Query: Consider the variant ITFYEDRAFQGRSYETTTPCPNLQPYFSRCNSIRVESGCWMLYERPNYQGQQYLLRRGEYPDYQQWMGLSDSIRSC [D19P] and give its recorded abundance fitness.
Response: -0.35

Query: Consider the variant ITFYEDRAFQGRSYETTTDCPHLQPYFSRCNSIRVESGCWMLYERPNYQGQQYLLRRGEYPDYQQWMGLSDSIRSC [N22H] and give its recorded abundance fitness.
Response: -0.176

Query: Consider the variant ITFYEDRAFQGRSYETTTDCPNLQPYFSRCNSIRVESGCWMLYERPNYQGQQYLLRRGEYPDYQQWMGLSDSIRSD [C76D] and give its recorded abundance fitness.
Response: -0.834

Query: Consider the variant ITFYEDRAFQGRSYETTTDCPNLQPYFSRCNSIRVESGCWMLQERPNYQGQQYLLRRGEYPDYQQWMGLSDSIRSC [Y43Q] and give its recorded abundance fitness.
Response: -0.86

Query: Consider the variant ITFYEDRAFQGRSYETTTDCPNLQPYFSRPNSIRVESGCWMLYERPNYQGQQYLLRRGEYPDYQQWMGLSDSIRSC [C30P] and give its recorded abundance fitness.
Response: -0.079

Query: Consider the variant IGFYEDRAFQGRSYETTTDCPNLQPYFSRCNSIRVESGCWMLYERPNYQGQQYLLRRGEYPDYQQWMGLSDSIRSC [T2G] and give its recorded abundance fitness.
Response: -0.329

Query: Consider the variant ITFYEDRAFQGRSYETTTDCPNLQPYFYRCNSIRVESGCWMLYERPNYQGQQYLLRRGEYPDYQQWMGLSDSIRSC [S28Y] and give its recorded abundance fitness.
Response: -0.012

Query: Consider the variant ITFYEDRAFQGRSYETTTDCPNLQPYFSRCNSIRVESGCWMLYERPNYQGQQYLLRRGEYPDYQQWHGLSDSIRSC [M67H] and give its recorded abundance fitness.
Response: -0.01

Query: Consider the variant ITFYEDRAFQGRSYETTWDCPNLQPYFSRCNSIRVESGCWMLYERPNYQGQQYLLRRGEYPDYQQWMGLSDSIRSC [T18W] and give its recorded abundance fitness.
Response: 0.017

Query: Consider the variant ITFYEDRAFQGRSYETTTDCPNLQPYFSRCNSIRVESGCWMLYEVPNYQGQQYLLRRGEYPDYQQWMGLSDSIRSC [R45V] and give its recorded abundance fitness.
Response: -0.15

Query: Consider the variant ITFYEDRAFQGRSTETTTDCPNLQPYFSRCNSIRVESGCWMLYERPNYQGQQYLLRRGEYPDYQQWMGLSDSIRSC [Y14T] and give its recorded abundance fitness.
Response: -0.167

Query: Consider the variant ITFYEDRDFQGRSYETTTDCPNLQPYFSRCNSIRVESGCWMLYERPNYQGQQYLLRRGEYPDYQQWMGLSDSIRSC [A8D] and give its recorded abundance fitness.
Response: -0.275

Query: Consider the variant ITFYEDRAFQGRSYETTTDCPNLQPYFSRCNSIRVESGCWMLYERPNYQGQQYSLRRGEYPDYQQWMGLSDSIRSC [L54S] and give its recorded abundance fitness.
Response: -0.003

Query: Consider the variant ITFYEDRAFQGRSYETTTDCPNLQPYFSRCNSIRVESGCWMLYERPNYQGQQYLLSRGEYPDYQQWMGLSDSIRSC [R56S] and give its recorded abundance fitness.
Response: -0.611

Query: Consider the variant ITFYEDRAFQGRSLETTTDCPNLQPYFSRCNSIRVESGCWMLYERPNYQGQQYLLRRGEYPDYQQWMGLSDSIRSC [Y14L] and give its recorded abundance fitness.
Response: -0.101

Query: Consider the variant ITFYEDRAFQGRSYETTTDCPNLQPYFSRCNSIYVESGCWMLYERPNYQGQQYLLRRGEYPDYQQWMGLSDSIRSC [R34Y] and give its recorded abundance fitness.
Response: -0.098

Query: Consider the variant ITFLEDRAFQGRSYETTTDCPNLQPYFSRCNSIRVESGCWMLYERPNYQGQQYLLRRGEYPDYQQWMGLSDSIRSC [Y4L] and give its recorded abundance fitness.
Response: -0.984

Query: Consider the variant ITFYEDRAFQGRSYETTTDCPNLQPYFSRCNSIRVESGCWPLYERPNYQGQQYLLRRGEYPDYQQWMGLSDSIRSC [M41P] and give its recorded abundance fitness.
Response: -0.981

Query: Consider the variant ITFYEDRQFQGRSYETTTDCPNLQPYFSRCNSIRVESGCWMLYERPNYQGQQYLLRRGEYPDYQQWMGLSDSIRSC [A8Q] and give its recorded abundance fitness.
Response: 0.007

This collection of values is drawn from the Human Domainome abundance scans (Beltran et al. 2025).
